Each recorded value in this set is attributed to ChEMBL document CHEMBL3045307.

Reported inhibition by item:
Molecular target: Urease (Canavalia ensiformis) (UniProt P07374)
Sequence (P07374 whole entry, looked up): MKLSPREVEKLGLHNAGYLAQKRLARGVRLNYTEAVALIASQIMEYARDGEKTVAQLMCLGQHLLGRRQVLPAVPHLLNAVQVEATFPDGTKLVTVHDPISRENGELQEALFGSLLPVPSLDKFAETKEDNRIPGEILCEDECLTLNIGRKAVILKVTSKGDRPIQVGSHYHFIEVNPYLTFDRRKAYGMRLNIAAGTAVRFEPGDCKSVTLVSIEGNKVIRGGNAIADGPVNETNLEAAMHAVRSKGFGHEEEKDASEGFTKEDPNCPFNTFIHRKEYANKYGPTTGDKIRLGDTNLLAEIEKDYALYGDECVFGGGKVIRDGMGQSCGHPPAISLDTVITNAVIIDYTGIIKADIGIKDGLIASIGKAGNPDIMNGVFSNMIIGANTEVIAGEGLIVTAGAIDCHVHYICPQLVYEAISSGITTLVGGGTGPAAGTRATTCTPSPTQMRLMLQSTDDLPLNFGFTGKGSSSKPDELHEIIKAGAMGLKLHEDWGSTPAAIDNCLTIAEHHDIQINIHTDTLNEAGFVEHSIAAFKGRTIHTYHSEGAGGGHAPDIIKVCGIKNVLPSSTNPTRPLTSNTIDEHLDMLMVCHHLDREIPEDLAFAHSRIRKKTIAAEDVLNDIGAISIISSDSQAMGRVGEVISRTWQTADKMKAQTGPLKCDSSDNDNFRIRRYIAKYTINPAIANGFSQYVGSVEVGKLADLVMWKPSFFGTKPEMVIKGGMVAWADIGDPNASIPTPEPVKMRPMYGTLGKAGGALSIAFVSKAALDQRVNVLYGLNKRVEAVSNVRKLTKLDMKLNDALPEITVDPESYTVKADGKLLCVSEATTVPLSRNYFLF
Assay: Inhibition of Canavalia ensiformis (jack bean) urease assessed as ammonia production using urea as substrate at 0.01 uM after 15 min by indophenol method
State just the number; it will be interpreted in %.

Kindly indicate its recorded inhibition. Item: CC1=CC2=NC(=O)/C(=C\Nc3ccc([N+](=O)[O-])cn3)C(=O)N2C=C1
3

Kindly indicate its recorded inhibition. Item: CC1=CC2=NC(=O)/C(=C\NNC(=O)c3ccc(O)cc3)C(=O)N2C=C1
-5

Kindly indicate its recorded inhibition. Item: CC1=CC2=NC(=O)/C(=C\NNC(=O)c3ccc(Cl)cc3)C(=O)N2C=C1
-4

Kindly indicate its recorded inhibition. Item: CC1=CC2=NC(=O)/C(=C\Nc3ccc(F)cc3)C(=O)N2C=C1
1

Kindly indicate its recorded inhibition. Item: CC1=CC2=NC(=O)CC(=O)N2C=C1
1

Kindly indicate its recorded inhibition. Item: CC1=CC2=NC(=O)/C(=C\NNC(=O)c3ccc(Br)cc3)C(=O)N2C=C1
-8

Kindly indicate its recorded inhibition. Item: CC1=CC2=NC(=O)/C(=C\NNC(=O)c3ccc([N+](=O)[O-])cc3)C(=O)N2C=C1
6

Kindly indicate its recorded inhibition. Item: CC1=CC2=NC(=O)/C(=C\Nc3ccc(C)cn3)C(=O)N2C=C1
3

----------
Reported inhibition by item:
Target: Urease (Canavalia ensiformis) (UniProt P07374)
Experiment: Inhibition of Canavalia ensiformis (jack bean) urease assessed as ammonia production using urea as substrate at 0.1 uM after 15 min by indophenol method
State just the number; it will be interpreted in %.

Answered cases to consult:
CC(=O)c1ccc(N/C=C2\C(=O)N=C3C=C(C)C=CN3C2=O)cc1: -2
CC1=CC2=NC(=O)CC(=O)N2C=C1: 6
CC(=O)c1ccccc1N/C=C1\C(=O)N=C2C=C(C)C=CN2C1=O: 19

Kindly indicate its recorded inhibition. Item: CC1=CC2=NC(=O)/C(=C\Nc3cc(C)ccn3)C(=O)N2C=C1
6

Kindly indicate its recorded inhibition. Item: CC1=CC2=NC(=O)/C(=C\NNC(=O)c3ccc(Cl)cc3)C(=O)N2C=C1
-2

Kindly indicate its recorded inhibition. Item: CC1=CC2=NC(=O)/C(=C\Nc3ccccc3F)C(=O)N2C=C1
10

----------
Target: Urease (Canavalia ensiformis) (UniProt P07374)
Assay: Inhibition of Canavalia ensiformis (jack bean) urease assessed as ammonia production using urea as substrate at 0.1 uM after 15 min by indophenol method
Reported inhibition by item:
State just the number; it will be interpreted in %.

Answered cases to consult:
CC(=O)c1cccc(N/C=C2\C(=O)N=C3C=C(C)C=CN3C2=O)c1: 3
CC1=CC2=NC(=O)/C(=C\Nc3c(C)cc(C)cc3C)C(=O)N2C=C1: -6
CC1=CC2=NC(=O)/C(=C\NNC(=O)c3ccccc3)C(=O)N2C=C1: 1
CC1=CC2=NC(=O)/C(=C\NNC(=O)c3ccc(O)cc3)C(=O)N2C=C1: -1

Kindly indicate its recorded inhibition. Item: CC1=CC2=NC(=O)/C(=C\NNC(=O)c3ccc([N+](=O)[O-])cc3)C(=O)N2C=C1
21

----------
Target: Urease (Canavalia ensiformis)
Assay: Inhibition of Canavalia ensiformis (jack bean) urease assessed as ammonia production using urea as substrate at 100 uM after 15 min by indophenol method
measurement_label: inhibition (%)
State just the number; it will be interpreted in %.

CC1=CC2=NC(=O)/C(=C\Nc3ccccc3S)C(=O)N2C=C1: 97
CC1=CC2=NC(=O)/C(=C\Nc3cc(C)ccn3)C(=O)N2C=C1: 33
CC1=CC2=NC(=O)/C(=C\Nc3ccc(C)cn3)C(=O)N2C=C1: 57

Kindly indicate its recorded inhibition. Item: CC1=CC2=NC(=O)/C(=C\NNC(=O)c3ccc(Br)cc3)C(=O)N2C=C1
57

Kindly indicate its recorded inhibition. Item: CC1=CC2=NC(=O)/C(=C\Nc3ccc(F)cc3)C(=O)N2C=C1
35

Kindly indicate its recorded inhibition. Item: CC(=O)c1ccc(N/C=C2\C(=O)N=C3C=C(C)C=CN3C2=O)cc1
18

Kindly indicate its recorded inhibition. Item: CC1=CC2=NC(=O)/C(=C\Nc3c(C)cc(C)cc3C)C(=O)N2C=C1
0.2

Kindly indicate its recorded inhibition. Item: CC1=CC2=NC(=O)/C(=C\Nc3ccc([N+](=O)[O-])cn3)C(=O)N2C=C1
48

Kindly indicate its recorded inhibition. Item: CC1=CC2=NC(=O)/C(=C\NNC(=O)c3ccc(O)cc3)C(=O)N2C=C1
39

Kindly indicate its recorded inhibition. Item: CC1=CC2=NC(=O)/C(=C\NNC(=O)c3ccc([N+](=O)[O-])cc3)C(=O)N2C=C1
87
